Molecular target: recombinant human HGF (R&D Systems, Catalog No. 294-HGN-025) (human, UniProt P14210 32-728)
Sequence (P14210 32-728 limits assumed): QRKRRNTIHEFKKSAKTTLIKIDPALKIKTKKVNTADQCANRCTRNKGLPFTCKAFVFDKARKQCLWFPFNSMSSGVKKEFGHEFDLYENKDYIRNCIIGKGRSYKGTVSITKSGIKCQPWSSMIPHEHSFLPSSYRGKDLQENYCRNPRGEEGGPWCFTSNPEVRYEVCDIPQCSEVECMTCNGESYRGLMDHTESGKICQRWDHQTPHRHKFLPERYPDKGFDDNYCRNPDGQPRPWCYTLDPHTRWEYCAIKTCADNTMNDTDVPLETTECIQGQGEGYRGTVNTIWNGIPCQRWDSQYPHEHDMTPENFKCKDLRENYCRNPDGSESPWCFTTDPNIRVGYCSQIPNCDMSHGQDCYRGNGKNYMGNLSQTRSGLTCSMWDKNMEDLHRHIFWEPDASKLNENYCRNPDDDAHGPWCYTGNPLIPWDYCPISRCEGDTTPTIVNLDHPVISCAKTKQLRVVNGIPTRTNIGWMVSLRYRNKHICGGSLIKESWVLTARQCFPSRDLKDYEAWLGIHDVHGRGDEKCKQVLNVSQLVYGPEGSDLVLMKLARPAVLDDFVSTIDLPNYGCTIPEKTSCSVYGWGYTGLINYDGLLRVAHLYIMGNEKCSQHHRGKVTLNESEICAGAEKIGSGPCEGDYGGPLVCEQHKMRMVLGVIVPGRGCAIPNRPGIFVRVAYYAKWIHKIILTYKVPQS
Experiment: cell-based or functional assay
MEASUREMENT_KIND: IC50, neutralization of HGF stimulated BrdU incorporation in 4 MBr-5 cells (nM)
Just the number please, in nM, no unit attached.

Below: 2 binders and their reported IC50, neutralization of HGF stimulated BrdU incorporation in 4 MBr-5 cells.
HE2B8-3 (LRMR2B8HC + IgG1 constant region G1m(3) allotype allele 1, plus LR2B8LC + Kappa constant region Km(3) allotype allele 1) (antibody, V domains shown, Human Engineered 2B8 variant, human IgG1 kappa, made in HEK293E cells) VH: QVQLVQPGAEVKKPGTSVKLSCKASGYTFTTYWMHWVRQAPGQGLEWIGEINPTNGHTNYNQKFQGRATLTVDKSTSTAYMELSSLRSEDTAVYYCARNYVGSIFDYWGQGTLLTVSS VL: DIVMTQSPDSMAMSVGERVTLNCKASENVVSYVSWYQQKPGQSPKLLIYGASNRNTGVPDRFSGSGSATDFTLTISSVQAEDVADYHCGQSYNYPYTFGQGTKLEIKR ... 0.55
HE2B8-2 (LR2B8HC + IgG1 constant region G1m(3) allotype allele 1, plus LRMR2B8LC + Kappa constant region Km(3) allotype allele 1) (antibody, V domains shown, Human Engineered 2B8 variant, human IgG1 kappa, made in HEK293E cells) VH: QVQLVQPGAEVVKPGTSVKLSCKASGYTFTTYWMHWVNQAPGQGLEWIGEINPTNGHTNYNEKFKGKATLTVDKSTSTAYMELSSLRSEDTAVYYCARNYVGSIFDYWGQGTLLTVSS VL: DIVMTQSPDSLAMSLGERVTLNCKASENVVSYVSWYQQKPGQSPKLLIYGASNRESGVPDRFSGSGSATDFTLTISSVQAEDVADYHCGQSYNYPYTFGQGTKLEIKR ... 0.66

Report IC50, neutralization of HGF stimulated BrdU incorporation in 4 MBr-5 cells for HE2B8-4 (LRMR2B8HC + IgG1 constant region G1m(3) allotype allele 1, plus LRMR2B8LC + Kappa constant region Km(3) allotype allele 1) (antibody, V domains shown, Human Engineered 2B8 variant, human IgG1 kappa, made in HEK293E cells) VH: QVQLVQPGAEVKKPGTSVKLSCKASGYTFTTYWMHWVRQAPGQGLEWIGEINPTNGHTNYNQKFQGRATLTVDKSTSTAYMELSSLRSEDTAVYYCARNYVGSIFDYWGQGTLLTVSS VL: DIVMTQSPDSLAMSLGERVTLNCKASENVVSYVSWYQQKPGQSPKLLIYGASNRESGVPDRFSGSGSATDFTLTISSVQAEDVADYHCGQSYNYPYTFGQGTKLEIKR please. 0.58
